Numbers sourced from patent US8063221B2.

Please go through the items and note down their IC50.
Target: recombinant full-length human GSK3β (Homo sapiens)
Construct: recombinant full-length human GSK3β (Upstate); purchased Upstate
Sequence (P49841 whole entry): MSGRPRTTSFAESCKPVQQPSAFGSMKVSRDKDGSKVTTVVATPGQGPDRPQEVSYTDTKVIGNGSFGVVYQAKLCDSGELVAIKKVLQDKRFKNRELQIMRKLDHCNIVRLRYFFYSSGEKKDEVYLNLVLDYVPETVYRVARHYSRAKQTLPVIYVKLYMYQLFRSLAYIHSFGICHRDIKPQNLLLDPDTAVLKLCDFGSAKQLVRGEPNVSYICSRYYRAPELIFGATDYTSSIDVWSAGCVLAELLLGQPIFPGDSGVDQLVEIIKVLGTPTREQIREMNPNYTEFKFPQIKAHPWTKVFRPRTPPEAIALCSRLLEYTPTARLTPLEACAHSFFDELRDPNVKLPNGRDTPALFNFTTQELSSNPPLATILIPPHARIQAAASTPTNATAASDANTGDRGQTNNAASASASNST
Assay: Luciferase-coupled cell-free GSK3β kinase assay
Format: biochemical
Conditions: Table 1

Exercise: Given Nc1c(F)c(NCCCn2ccnc2)c(F)c2c1c(=O)c(C(=O)O)cn2C1CC1 [compound 23] , respond with its IC50.
Solution: < 100 nM

Exercise: Given Nc1c(F)c(NCCNc2cccc3ccccc23)c(F)c2c1c(=O)ccn2CCc1ccccc1 [compound 64] , respond with its IC50.
Solution: 100 to 500 nM

Exercise: Given Nc1c(F)c(NCCc2ccncc2)c(F)c2c1c(=O)ccn2CCc1ccccc1 [compound 59] , respond with its IC50.
Solution: 100 to 500 nM

Exercise: Given Nc1c(F)c(NCCCCc2ccccc2)c(F)c2c1c(=O)c(C(=O)O)cn2C1CC1 [compound 20] , respond with its IC50.
Solution: 100 to 500 nM

Exercise: Given CNNC(=O)c1cn(C2CC2)c2c(F)c(NCCCc3ccccc3)c(F)c(N)c2c1=O [compound 86] , respond with its IC50.
Solution: > 1000 nM

Exercise: Given COc1c(NCCc2ccncc2)c(F)c(N)c2c(=O)c(C(=O)O)cn(C3CCCC3)c12 [compound 80] , respond with its IC50.
Solution: > 1000 nM
